Experiment: Ratio of test compound MRT to telithromycin MRT in Sprague-Dawley rat at 20 mg/kg, po after 0.25 to 24 hrs by LC-MS/MS analysis
Type: ADME, organism-based
Conditions: in vivo
Measured endpoint: Ratio

// Input: CC[C@H]1OC(=O)[C@@](C)(F)C(=O)[C@H](C)[C@@H](O[C@@H]2O[C@H](C)C[C@H](N(C)C)[C@H]2O)[C@](C)(OC)C[C@@H](C)/C(=N\OCC#Cc2ccc3c(c2)c(=O)c(C(N)=O)cn3CC)[C@H](C)[C@H]2OC(=O)O[C@@]21C . Output its Ratio only. 2.3 to 2.6

// Input: CC[C@H]1OC(=O)[C@@](C)(F)C(=O)[C@H](C)[C@@H](O[C@@H]2O[C@H](C)C[C@H](N(C)C)[C@H]2O)[C@](C)(OC)C[C@@H](C)/C(=N\OC/C=C/c2ccc3c(c2)c(=O)c(C(N)=O)cn3CC)[C@H](C)[C@H]2OC(=O)O[C@@]21C . Output its Ratio only. 2.3 to 2.6

// Input: CC[C@H]1OC(=O)[C@@](C)(F)C(=O)[C@H](C)[C@@H](O[C@@H]2O[C@H](C)C[C@H](N(C)C)[C@H]2O)[C@](C)(OC/C=C/c2ccc3c(c2)c(=O)c(C(N)=O)cn3C2CC2)C[C@@H](C)/C(=N\OC)[C@H](C)[C@H]2OC(=O)O[C@@]21C . Output its Ratio only. 2.3 to 2.6
